Biological target: Short transient receptor potential channel 6 (Mus musculus) (UniProt Q61143)
Sequence (Q61143 whole entry, looked up): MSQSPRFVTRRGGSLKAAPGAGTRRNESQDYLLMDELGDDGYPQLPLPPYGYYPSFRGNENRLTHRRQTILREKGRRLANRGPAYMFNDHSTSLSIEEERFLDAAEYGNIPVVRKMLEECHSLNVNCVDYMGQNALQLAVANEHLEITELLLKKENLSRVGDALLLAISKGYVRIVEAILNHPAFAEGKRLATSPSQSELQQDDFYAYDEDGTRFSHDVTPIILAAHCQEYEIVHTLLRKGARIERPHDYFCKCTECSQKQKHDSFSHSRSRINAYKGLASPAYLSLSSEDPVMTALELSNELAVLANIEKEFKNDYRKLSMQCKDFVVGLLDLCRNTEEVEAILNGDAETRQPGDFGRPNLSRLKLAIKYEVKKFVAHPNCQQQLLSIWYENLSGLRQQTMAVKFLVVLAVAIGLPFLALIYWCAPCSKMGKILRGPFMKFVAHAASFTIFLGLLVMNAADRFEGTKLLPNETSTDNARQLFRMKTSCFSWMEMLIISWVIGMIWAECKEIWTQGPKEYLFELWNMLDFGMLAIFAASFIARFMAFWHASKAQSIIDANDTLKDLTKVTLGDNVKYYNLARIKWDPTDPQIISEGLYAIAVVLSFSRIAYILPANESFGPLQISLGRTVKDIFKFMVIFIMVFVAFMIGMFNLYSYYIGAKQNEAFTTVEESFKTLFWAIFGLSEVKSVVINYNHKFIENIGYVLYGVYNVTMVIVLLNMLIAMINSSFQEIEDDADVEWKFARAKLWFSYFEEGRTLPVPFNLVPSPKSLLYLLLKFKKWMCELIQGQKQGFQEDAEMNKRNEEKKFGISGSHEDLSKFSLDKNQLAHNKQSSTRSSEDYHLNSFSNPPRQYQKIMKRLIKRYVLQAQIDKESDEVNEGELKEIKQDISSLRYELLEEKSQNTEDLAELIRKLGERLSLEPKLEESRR
Experiment: mouse TRPC6 channel activators, primary screen, cell-based, HEK293, membrane potential dye (AID 2550);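 also: higher score means more depolarization so channel activation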
Details: HEK293-TRPC6 membrane potential dye fluorescence, at 10 µM
Out of some 310,000 compounds screened, about 380 (0.12%) were called active.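 The calls were made as follows: active = B-score of the integrated fluorescence ratio above library mean plus 3 SD, and starting fluorescence ratio within library mean plus 5 SD; inactive = the rest.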 Shown is part of a subset that was picked to be rich in actives.
Output constraint: value belongs to active, inactive

For orientation, consider the following solved cases.
O=C(NCCS(=O)(=O)NCc1ccc(Cl)cc1)c1ccccc1: inactive
CC(C)C(c1nnnn1C(C)(C)C)N1CCN(Cc2cccnc2)CC1 (stereo not drawn): inactive
Cc1ccccc1-n1nnnc1SCCCC(=O)c1ccc(F)cc1: inactive
CCn1cc(C(=O)NCCO)c(=O)c2cc(F)c(N3CCN(C)CC3)cc21: inactive

Task item: GET /call?item= Cc1ccc(-c2ccc(/C=N/NC(=O)CN3CCOCC3)o2)cc1[N+](=O)[O-] returns the recorded outcome of this test.
Reply: inactive

// data source = PubChem BioAssay AID2550
